Exercise: state measured bioavailability for each of the compounds provided.
experiment: Oral bioavailability in Beagle dog at 5 mg/kg by LC/MS method; assay type: ADME, organism-based, Canis lupus familiaris; conditions: in vivo
Give bare numbers, in %.

Illustrative cases are given below, each with its answer.
compound=COC(=O)N[C@H](C(=O)N1CCC[C@H]1c1ncc(-c2cc(F)c3c(c2)O[C@@H](c2ccc(C4CC4)s2)n2c-3cc3cc(-c4cnc([C@@H]5CCCN5C(=O)[C@@H](NC(=O)OC)[C@@H]5CCOC(C)(C)C5)[nH]4)ccc32)[nH]1)C(C)C assay_metric=bioavailability units_symbol=% observed_measurement=14.9
compound="COC(=O)N[C@H](C(=O)N1CCC[C@H]1c1ncc(-c2cc(F)c3c(c2)O[C@@H](c2ccc(C4CC4)s2)n2c-3cc3cc(-c4cnc([C@@H]5CCCN5C(=O)[C@@H](NC(=O)OC)C5C[C@@H](C)O[C@H](C)C5)[nH]4)ccc32)[nH]1)C(C)C (some centres undefined)" assay_metric=bioavailability units_symbol=% observed_measurement=18.7
compound=COC(=O)N[C@H](C(=O)N1CCC[C@H]1c1ncc(-c2cc(F)c3c(c2)O[C@@H](c2ccc(C4CC4)s2)n2c-3cc3cc(-c4cnc([C@@H]5CCCN5C(=O)[C@@H](NC(=O)OC)C5CCOCC5)[nH]4)ccc32)[nH]1)C(C)C assay_metric=bioavailability units_symbol=% observed_measurement=11

Query: Report bioavailability, nothing else, for this compound: COC(=O)N[C@H](C(=O)N1CCC[C@H]1c1ncc(-c2cc(F)c3c(c2)O[C@@H](c2ccc(C4CC4)s2)n2c-3cc3cc(-c4cnc([C@@H]5CCCN5C(=O)[C@@H](NC(=O)OC)C5C[C@@H](C)O[C@@H](C)C5)[nH]4)ccc32)[nH]1)C(C)C (some centres undefined)
Result: 8.5

* * *

assay: Drug level in Wistar Han rat at 300 mg/kg, po measured at 24 hrs by LC/MS method; assay type: ADME, organism-based; details: in vivo, read-out: Drug uptake
Exercise: state measured concentration at 24 h for each of the molecules provided.
Answers are plain numbers, in nM.

Illustrative cases are given below, each with its answer.
molecule="COC(=O)N[C@H](C(=O)N1CCC[C@H]1c1ncc(-c2cc(F)c3c(c2)O[C@@H](c2ccc(C4CC4)s2)n2c-3cc3cc(-c4cnc([C@@H]5CCCN5C(=O)[C@@H](NC(=O)OC)C5C[C@@H](C)O[C@@H](C)C5)[nH]4)ccc32)[nH]1)C(C)C (some centres undefined)" assay_metric="concentration at 24 h" observed_measurement=40
molecule=COC(=O)N[C@H](C(=O)N1CCC[C@H]1c1ncc(-c2cc(F)c3c(c2)O[C@@H](c2ccc(C4CC4)s2)n2c-3cc3cc(-c4cnc([C@@H]5CCCN5C(=O)[C@@H](NC(=O)OC)[C@@H]5CCOC(C)(C)C5)[nH]4)ccc32)[nH]1)C(C)C assay_metric="concentration at 24 h" observed_measurement=164
molecule="COC(=O)N[C@H](C(=O)N1CCC[C@H]1c1ncc(-c2cc(F)c3c(c2)O[C@@H](c2ccc(C4CC4)s2)n2c-3cc3cc(-c4cnc([C@@H]5CCCN5C(=O)[C@@H](NC(=O)OC)C5C[C@@H](C)O[C@H](C)C5)[nH]4)ccc32)[nH]1)C(C)C (some centres undefined)" assay_metric="concentration at 24 h" observed_measurement=29

Query: Report concentration at 24 h, nothing else, for this molecule: `COC(=O)N[C@H](C(=O)N1CCC[C@H]1c1ncc(-c2cc(F)c3c(c2)O[C@@H](c2ccc(C4CC4)s2)n2c-3cc3cc(-c4cnc([C@@H]5CCCN5C(=O)[C@@H](NC(=O)OC)C5CCOCC5)[nH]4)ccc32)[nH]1)C(C)C`
Result: 32

* * *

biological target: Nonstructural protein 5A (Hepatitis C virus); test: Inhibition of NS5A in HCV genotype 1a infected in HuH7 replicon cells assessed as decrease in viral replication after 3 days by RT-PCR method; format: cell-based; settings: Hepatitis C virus subtype 1a
ASSAY_METRIC: EC90 (pM)
Numbers only, in pM.

Illustrative cases are given below, each with its answer.
molecule=CCc1ccc([C@@H]2Oc3cc(-c4cnc([C@@H]5CCCN5C(=O)[C@@H](NC(=O)OC)C(C)C)[nH]4)cc(F)c3-c3cc4cc(-c5cnc([C@@H]6CCCN6C(=O)[C@@H](NC(=O)OC)[C@@H]6CCOC(C)(C)C6)[nH]5)ccc4n32)s1 target_entity="Nonstructural protein 5A (Hepatitis C virus)" assay_metric=EC90 units_symbol=pM observed_measurement=5
molecule=CCCc1ccc([C@@H]2Oc3cc(-c4cnc([C@@H]5CCCN5C(=O)[C@@H](NC(=O)OC)C(C)C)[nH]4)cc(F)c3-c3cc4cc(-c5cnc([C@@H]6CCCN6C(=O)[C@@H](NC(=O)OC)[C@@H]6CCOC(C)(C)C6)[nH]5)ccc4n32)s1 target_entity="Nonstructural protein 5A (Hepatitis C virus)" assay_metric=EC90 units_symbol=pM observed_measurement=10
molecule="COC(=O)N[C@H](C(=O)N1CCC[C@H]1c1ncc(-c2cc(F)c3c(c2)O[C@@H](c2ccc(C4CC4)s2)n2c-3cc3cc(-c4cnc([C@@H]5CCCN5C(=O)[C@@H](NC(=O)OC)C5C[C@@H](C)O[C@H](C)C5)[nH]4)ccc32)[nH]1)C(C)C (some centres undefined)" target_entity="Nonstructural protein 5A (Hepatitis C virus)" assay_metric=EC90 units_symbol=pM observed_measurement=4

Query: Report EC90, nothing else, for this molecule: COC(=O)N[C@H](C(=O)N1CCC[C@H]1c1ncc(-c2cc(F)c3c(c2)O[C@@H](c2ccc(C4CC4)s2)n2c-3cc3cc(-c4cnc([C@@H]5CCCN5C(=O)[C@@H](NC(=O)OC)C5CCO[C@@H](C)C5)[nH]4)ccc32)[nH]1)C(C)C (some centres undefined)
Result: 5

* * *

assay: Resistance ratio of EC90 for NS5A in HCV genotype 4a infected in HuH7 replicon cells to EC90 for NS5A in HCV genotype 1a infected in HuH7 replicon cells; format: cell-based
ASSAY_METRIC: Ratio
Answers are plain numbers.

Query: Report Ratio, nothing else, for this compound: `COC(=O)N[C@H](C(=O)N1CCC[C@H]1c1ncc(-c2cc(F)c3c(c2)O[C@@H](c2ccc(C4CC4)s2)n2c-3cc3cc(-c4cnc([C@@H]5CCCN5C(=O)[C@@H](NC(=O)OC)[C@@H]5CCOC(C)(C)C5)[nH]4)ccc32)[nH]1)C(C)C`
Result: 2

* * *

test: Clearance in Wistar Han rat at 2 mg/kg, iv by LC/MS method; assay type: ADME, organism-based; settings: in vivo
Lab note: compare clearance against 9 mL/min/kg. Equal or greater, write met. Smaller, write not met.

Field: example entries. Status: answers known.
compound=CCc1ccc([C@@H]2Oc3cc(-c4cnc([C@@H]5CCCN5C(=O)[C@@H](NC(=O)OC)C(C)C)[nH]4)cc(F)c3-c3cc4cc(-c5cnc([C@@H]6CCCN6C(=O)[C@@H](NC(=O)OC)[C@@H]6CCOC(C)(C)C6)[nH]5)ccc4n32)s1 category_label="not met"
compound=COC(=O)N[C@H](C(=O)N1CCC[C@H]1c1ncc(-c2cc(F)c3c(c2)O[C@@H](c2ccc(C4CC4)s2)n2c-3cc3cc(-c4cnc([C@@H]5CCCN5C(=O)[C@@H](NC(=O)OC)[C@H]5CCOC(C)(C)C5)[nH]4)ccc32)[nH]1)C(C)C category_label=met
compound=COC(=O)N[C@H](C(=O)N1CCC[C@H]1c1ncc(-c2cc(F)c3c(c2)O[C@@H](c2ccc(C(C)C)s2)n2c-3cc3cc(-c4cnc([C@@H]5CCCN5C(=O)[C@@H](NC(=O)OC)[C@@H]5CCOC(C)(C)C5)[nH]4)ccc32)[nH]1)C(C)C category_label="not met"
compound=CCCc1ncc([C@@H]2Oc3cc(-c4cnc([C@@H]5CCCN5C(=O)[C@@H](NC(=O)OC)C(C)C)[nH]4)cc(F)c3-c3cc4cc(-c5cnc([C@@H]6CCCN6C(=O)[C@@H](NC(=O)OC)[C@@H]6CCOC(C)(C)C6)[nH]5)ccc4n32)s1 category_label=met
compound="COC(=O)N[C@H](C(=O)N1CCC[C@H]1c1ncc(-c2cc(F)c3c(c2)O[C@@H](c2ccc(C4CC4)s2)n2c-3cc3cc(-c4cnc([C@@H]5CCCN5C(=O)[C@@H](NC(=O)OC)C5CCO[C@H](C)C5)[nH]4)ccc32)[nH]1)C(C)C (stereo partly specified)" category_label=met

Query: # bool: clearance of COC(=O)N[C@H](C(=O)N1CCC[C@H]1c1ncc(-c2cc(F)c3c(c2)O[C@@H](c2ccc(C4CC4)s2)n2c-3cc3cc(-c4cnc([C@@H]5CCCN5C(=O)[C@@H](NC(=O)OC)C5C[C@@H](C)O[C@@H](C)C5)[nH]4)ccc32)[nH]1)C(C)C (stereo partly specified) >= 9 mL/min/kg
Result: met

Query: # bool: clearance of `CCc1ncc([C@@H]2Oc3cc(-c4cnc([C@@H]5CCCN5C(=O)[C@@H](NC(=O)OC)C(C)C)[nH]4)cc(F)c3-c3cc4cc(-c5cnc([C@@H]6CCCN6C(=O)[C@@H](NC(=O)OC)[C@@H]6CCOC(C)(C)C6)[nH]5)ccc4n32)s1` >= 9 mL/min/kg
Result: met

Query: # bool: clearance of COC(=O)N[C@H](C(=O)N1CCC[C@H]1c1ncc(-c2cc(F)c3c(c2)O[C@@H](c2ccc(C4CC4)s2)n2c-3cc3cc(-c4cnc([C@@H]5CCCN5C(=O)[C@@H](NC(=O)OC)C5CCO[C@@H](C)C5)[nH]4)ccc32)[nH]1)C(C)C (stereo partly specified) >= 9 mL/min/kg
Result: met

Query: # bool: clearance of COC(=O)N[C@H](C(=O)N1CCC[C@H]1c1ncc(-c2cc(F)c3c(c2)O[C@@H](c2ccc(C4CC4)s2)n2c-3cc3cc(-c4cnc([C@@H]5CCCN5C(=O)[C@@H](NC(=O)OC)C5CCOC6(CC6)C5)[nH]4)ccc32)[nH]1)C(C)C (stereo partly specified) >= 9 mL/min/kg
Result: not met

Query: # bool: clearance of `COC(=O)N[C@H](C(=O)N1CCC[C@H]1c1ncc(-c2ccc3c(c2)cc2n3[C@H](c3ccc4c(c3)OCCN4C)Oc3cc(-c4cnc([C@@H]5CCCN5C(=O)[C@@H](NC(=O)OC)C5CCOCC5)[nH]4)cc(F)c3-2)[nH]1)C(C)C` >= 9 mL/min/kg
Result: met

Query: # bool: clearance of `COC(=O)N[C@H](C(=O)N1CCC[C@H]1c1ncc(-c2cc(F)c3c(c2)O[C@@H](c2ccc(C4CC4)s2)n2c-3cc3cc(-c4cnc([C@@H]5CCCN5C(=O)[C@@H](NC(=O)OC)C5CCOCC5)[nH]4)ccc32)[nH]1)C(C)C` >= 9 mL/min/kg
Result: met

Query: # bool: clearance of `COC(=O)N[C@H](C(=O)N1CCC[C@H]1c1ncc(-c2cc(F)c3c(c2)O[C@@H](c2ccc4c(c2)OCCC4)n2c-3cc3cc(-c4cnc([C@@H]5CCCN5C(=O)[C@@H](NC(=O)OC)[C@@H]5CCOC(C)(C)C5)[nH]4)ccc32)[nH]1)C(C)C` >= 9 mL/min/kg
Result: met

Query: # bool: clearance of `COC(=O)N[C@H](C(=O)N1CCC[C@H]1c1ncc(-c2cc(F)c3c(c2)O[C@@H](c2ccc(C4CC4)s2)n2c-3cc3cc(-c4cnc([C@@H]5CCCN5C(=O)[C@@H](NC(=O)OC)[C@@H]5CCOC(C)(C)C5)[nH]4)ccc32)[nH]1)C(C)C` >= 9 mL/min/kg
Result: not met

Query: # bool: clearance of COC(=O)N[C@H](C(=O)N1CCC[C@H]1c1ncc(-c2cc(F)c3c(c2)O[C@@H](c2ccc(C4CC4)s2)n2c-3cc3cc(-c4cnc([C@@H]5CCCN5C(=O)[C@@H](NC(=O)OC)C5C[C@@H](C)O[C@H](C)C5)[nH]4)ccc32)[nH]1)C(C)C (stereo partly specified) >= 9 mL/min/kg
Result: met
